test system: N140; test: qHTS profiling for inhibitors of Plasmodium falciparum proliferation (AID 504749); further: nearly all actives have a fitted effect of over 60% in size; conditions: P. falciparum in erythrocytes, SYBR Green DNA, 72 h; series mostly up to 28.7 µM
Results filed as inconclusive are left out. Active and inactive are the calls of the source. The call rests on the fitted dose curve; in most records, active means well fitted inhibition curve with a large enough effect; inconclusive means small, poorly fitted or top-dose-only effect; inactive means flat fitted curve, though single readings scatter. Numbered stars: 1 amine (or outer) side, 2 acyl side, 3 side chain; on linkers, the order of the positions; unused ones are H or OH. Bridge positions count the residues as written; N and C are the ends. Square brackets hold non-standard residues; d marks the D form. Peptide text beside a SMILES is read from it. I, II: the chains in the order shown. Actinocin(9to1) = Cc1c2oc3c(C)ccc(C(=O)[*:1])c3nc-2c(C(=O)[*:2])c(N)c1=O; NMeV = CN[C@H](C(=O)O)C(C)C; Sar = CNCC(=O)O
Write down one outcome, taken from t for active, f for inactive

As a guide, the following entries are already answered.
{"MOLECULE": "O=S1(=O)c2cccc3cccc(c23)N1CCCN1CCN(c2ccc(F)cc2)CC1", "TARGET DESC": "N140", "LABEL VALUE": "f"}
{"MOLECULE": "NC(CS)C(=O)O (stereo not drawn)", "TARGET DESC": "N140", "LABEL VALUE": "t"}
{"MOLECULE": "CCOc1ccc(Cc2nccc3cc(OCC)c(OCC)cc23)cc1OCC", "TARGET DESC": "N140", "LABEL VALUE": "f"}
{"MOLECULE": "COc1cc2c(cc1OC)C(=O)C(CC1CCN(Cc3ccccc3)CC1)C2 (stereo not drawn)", "TARGET DESC": "N140", "LABEL VALUE": "f"}
{"MOLECULE": "CCCCOc1ccc(OCCCN2CCOCC2)cc1", "TARGET DESC": "N140", "LABEL VALUE": "f"}
{"MOLECULE": "Cc1c2oc3c(C)ccc(C(=O)N[C@@H]4C(=O)N[C@H](C(C)C)C(=O)N5CCC[C@H]5C(=O)N(C)CC(=O)N(C)[C@@H](C(C)C)C(=O)O[C@@H]4C)c3nc-2c(C(=O)N[C@@H]2C(=O)N[C@H](C(C)C)C(=O)N3CCC[C@H]3C(=O)N(C)CC(=O)N(C)[C@@H](C(C)C)C(=O)O[C@@H]2C)c(N)c1=O (I: T[dV]P[Sar][NMeV] / II: T[dV]P[Sar][NMeV]; ester I:1-I:C, II:1-II:C; linker I:N-II:N via Actinocin(9to1))", "TARGET DESC": "N140", "LABEL VALUE": "t"}
{"MOLECULE": "Oc1ccc(Cl)c2cccnc12", "TARGET DESC": "N140", "LABEL VALUE": "f"}

Prompt: Could you please tell me the result logged for Oc1ccc(Cl)cc1Sc1cc(Cl)ccc1O in this assay?
Response: f
